# Tested on: ragweed
# experiment-summary: Test A pre-/postemergence herbicide test
# Type: in vivo, Ambrosia elatior
# experimental-setup: preemergence, 500 g ai/ha; 0 to 100 scale
Plant response rating, Ragweed: recorded values
Response field accepts a number only; no unit should be typed.

>  <compound>
O=C1NCC(c2ccc(F)cc2)C1C(=O)Nc1ccc(F)c(F)c1F (racemic) [Compound 120]

>  <result-value>
80

$$$$
>  <compound>
O=C1NCC(c2cccc(C(F)(F)F)c2)C1C(=O)Nc1nnc(C(F)(F)F)s1 (racemic) [Compound 112]

>  <result-value>
0

$$$$
>  <compound>
O=C1NCC(c2cccc(C(F)(F)F)c2)C1C(=O)Nc1ccccn1 (racemic) [Compound 110]

>  <result-value>
0

$$$$
>  <compound>
Cc1ccc(C2CNC(=O)C2C(=O)Nc2cccc(F)c2F)cc1F (racemic) [Compound 146]

>  <result-value>
30

$$$$

Now consider the entry below.
Bench note: what Plant response rating, Ragweed did COc1cc(C2CNC(=O)C2C(=O)Nc2ccc(F)cc2F)ccc1F (racemic) [Compound 131] show?
0
